Overview of reported GFP response, % of DMSO across a group of molecules:
- ASSAY COMMENT: modulators of CIT2-GFP expression in yeast, confirmation, S. cerevisiae, GFP fusion, cherry picks, mother/daughter gates (AID 2274)
- SETTINGS: S. cerevisiae CIT2-GFP strain, flow cytometry, 3 h; measured here: daughter cell gate; at 10 µM; stronger effect = higher value

>  <MOLECULE>
CC1CCCCN1S(=O)(=O)c1ccc(C(=O)Nc2nnc(-c3ccccc3Cl)o2)cc1 (stereo not given)

>  <GFP response, % of DMSO, %>
101

$$$$
>  <MOLECULE>
COc1cc(/C=C2\N=C(c3c(-c4ccccc4)noc3C)OC2=O)ccc1OC(C)=O

>  <GFP response, % of DMSO, %>
103

$$$$
>  <MOLECULE>
Cc1cc(C)nc(/N=C(\N)N2CCCCCC2)n1

>  <GFP response, % of DMSO, %>
100

$$$$
>  <MOLECULE>
Cc1ccc(N2C(=O)C3C4C=CC(CNC(=S)Nc5ccc(Cl)cc5)(O4)C3C2=O)cc1 (stereo not given)

>  <GFP response, % of DMSO, %>
98.1

$$$$
>  <MOLECULE>
COc1cccc2cc(C(=O)N3CCN(C/C=C/c4ccccc4)CC3)c(=O)oc12

>  <GFP response, % of DMSO, %>
93.8

$$$$

----------
- ASSAY COMMENT: inhibitors of CD8+ T cell-vesicle binding, pilot screen, LFA-1/ICAM-1 modulator project, MLPCN validation set, flow cytometry (AID 2523)
- SETTINGS: 2C mouse CD8+ T cells, at 7 µM, stronger effect = lower value; measured here: CD8+/vesicle+ event percentage
RECORDED ENDPOINT: double positive events (%)

>  <MOLECULE>
COc1ccc(CCCC(=O)O)c(C)c1

>  <UNITS OF MEASURE>
%

>  <VALUE>
63.8

$$$$
>  <MOLECULE>
COc1ccc(CC(=O)c2c(O)cc(O)cc2O)cc1OC

>  <UNITS OF MEASURE>
%

>  <VALUE>
58.4

$$$$
>  <MOLECULE>
O=[N+]([O-])c1ccc2cn[nH]c2c1

>  <UNITS OF MEASURE>
%

>  <VALUE>
60.3

$$$$
>  <MOLECULE>
COc1ccc(C(=O)C2CCCCC2=O)cc1 (configuration not stated)

>  <UNITS OF MEASURE>
%

>  <VALUE>
67.8

$$$$
>  <MOLECULE>
COc1cccc(OCc2cc(C3Nc4ccccc4C(=O)N3Cc3ccco3)ccc2OC)c1 (configuration not stated)

>  <UNITS OF MEASURE>
%

>  <VALUE>
53.2

$$$$
>  <MOLECULE>
CCOC(=O)/C=C1\NC(C)(C)Cc2cc(OC)c(OC)cc21

>  <UNITS OF MEASURE>
%

>  <VALUE>
59.2

$$$$
>  <MOLECULE>
CC(C)NCC(O)COc1ccc(CCOCC2CC2)cc1 (configuration not stated)

>  <UNITS OF MEASURE>
%

>  <VALUE>
63.7

$$$$
>  <MOLECULE>
NS(=O)(=O)c1cc2c(cc1Cl)NC(CSCc1ccccc1)=NS2(=O)=O

>  <UNITS OF MEASURE>
%

>  <VALUE>
40.1

$$$$
>  <MOLECULE>
Cc1ccc(CSCC(=O)NCCCN2CCOCC2)cc1

>  <UNITS OF MEASURE>
%

>  <VALUE>
67.8

$$$$
>  <MOLECULE>
Cc1ccc2c(c1)C(O)(c1c(C)[nH]c3ccccc13)C(=O)N2 (configuration not stated)

>  <UNITS OF MEASURE>
%

>  <VALUE>
57.8

$$$$
>  <MOLECULE>
Cc1c(OCC(=O)NC(Cc2c[nH]c3ccc(O)cc23)C(=O)O)ccc2c3c(c(=O)oc12)CCC3 (configuration not stated)

>  <UNITS OF MEASURE>
%

>  <VALUE>
51.4

$$$$
>  <MOLECULE>
O=C(Nc1ccccc1)OCC1CCCN2CCCCC12 (configuration not stated)

>  <UNITS OF MEASURE>
%

>  <VALUE>
80

$$$$

Where these numbers come from: PubChem BioAssay
